System: Sporothrix brasiliensis CBS 133006
ASSAY_PROCEDURE: growth inhibition relative to untreated control; higher = more growth inhibition (more antifungal activity), active = 80 or more; extreme values may be limits of the assay
EXPERIMENTAL_SETUP: 1 µM; 48 h
Bucketed by reported growth inhibition, buckets being bottom bin = under 8%, middle bin = from 8% up to 10%, top bin = 10% and over

*Q* Band for the recorded growth inhibition of Cc1nn(C(=O)Nc2cccc(C(F)(F)F)c2)c(C)c1Sc1ncccn1 ?
*A* top bin

*Q* Band for the recorded growth inhibition of O=C(COc1cccc(F)c1)Nc1nc(-c2ccccn2)cs1 ?
*A* top bin

*Q* Band for the recorded growth inhibition of CCCn1c(CNc2ccccc2O)nc2ccccc21 ?
*A* top bin

*Q* Band for the recorded growth inhibition of O=C(Nc1nnc(-c2ccc(Cl)s2)o1)c1ccc(Cl)s1 ?
*A* top bin

*Q* Band for the recorded growth inhibition of C[C@H]1c2cccc(O)c2C(=O)C2=C(O)[C@]3(O)C(=O)C(C(N)=O)=C(O)[C@@H](N(C)C)[C@@H]3[C@@H](O)[C@@H]21 ?
*A* middle bin

*Q* Band for the recorded growth inhibition of COc1ccc(CCN2CCC(NCc3cccc(N(C)C)c3)CC2)cc1 ?
*A* top bin

*Q* Band for the recorded growth inhibition of Cc1ccc2nc(Cl)c(CNCc3cccs3)cc2c1 ?
*A* bottom bin

*Q* Band for the recorded growth inhibition of Cc1ccc(NC(=O)c2nc[nH]c2C(=O)Nc2nc3ccccc3[nH]2)c(C)c1 ?
*A* top bin

*Q* Band for the recorded growth inhibition of CN1CCCN(C(c2ccccc2)c2ccc(Cl)cc2)CC1 (configuration not stated) ?
*A* bottom bin

*Q* Band for the recorded growth inhibition of COc1cccc(-n2nnnc2S(C)(=O)=O)c1 ?
*A* bottom bin

*Q* Band for the recorded growth inhibition of Brc1cncc(-c2cc(NCCCn3ccnc3)nc(-c3ccccc3)n2)c1 ?
*A* top bin

*Q* Band for the recorded growth inhibition of COc1ccccc1OCCCCn1c(C2CC2)nc2ccccc21 ?
*A* bottom bin

*Q* Band for the recorded growth inhibition of COc1cccn2c(C(=O)N3CCCCC3)c(C(F)(F)F)nc12 ?
*A* middle bin

*Q* Band for the recorded growth inhibition of Cc1cc2nc(NC(=O)C(C)(C)C)nc(Cl)c2n1Cc1ccc(Cl)cc1 ?
*A* top bin

*Q* Band for the recorded growth inhibition of O=C(c1cc2ccccc2o1)N1CCN(Cc2ccc3c(c2)OCO3)CC1 ?
*A* top bin

*Q* Band for the recorded growth inhibition of CCn1ncc2c(NC3CCOCC3)c(CNC(=O)c3ccnn3C)c(C)nc21 ?
*A* bottom bin

*Q* Band for the recorded growth inhibition of O=C(CN1CCOCC1)Nc1ccc2ncnc(Nc3ccc(OCc4cccc(F)c4)c(Cl)c3)c2c1 ?
*A* middle bin

*Q* Band for the recorded growth inhibition of CCNC(=O)C(C)Nc1nc(-c2cccnc2)nc2sc(C)c(C)c12 (configuration not stated) ?
*A* bottom bin

----------
Tested on: Sporothrix brasiliensis CBS 133006
ASSAY_PROCEDURE: growth inhibition relative to untreated control; higher = more growth inhibition (more antifungal activity), active = 80 or more; extreme values may be limits of the assay
EXPERIMENTAL_SETUP: 1 µM; 48 h
Label rule, in plain words: growth inhibition of 4% and up is MET, under 4% is NOT MET.

*Q* Is growth inhibition at least 4%? Consider O=C(Nc1cnc2ccccc2c1)c1cccc(-n2cnnn2)c1
*A* NOT MET

*Q* Is growth inhibition at least 4%? Consider CC(=O)N1CCN(c2ccc(Oc3ccc(Cl)cc3O)cc2)CC1
*A* NOT MET

*Q* Is growth inhibition at least 4%? Consider CNCCC(Oc1ccc(C(F)(F)F)cc1)c1ccccc1 (stereo unspecified)
*A* MET

*Q* Is growth inhibition at least 4%? Consider FC(F)(F)c1nnc2ccc(Cl)nn12
*A* MET

*Q* Is growth inhibition at least 4%? Consider CCOc1ccc2cc(-c3nn(C(C)(C)C)c(N)c3C(N)=O)cnc2c1
*A* NOT MET

*Q* Is growth inhibition at least 4%? Consider COc1ccc(OC(C)C(=O)Nc2ccc(Cl)cc2C)cc1 (stereo unspecified)
*A* MET

*Q* Is growth inhibition at least 4%? Consider CNc1snc(C)c1C(=O)NCCOc1ccc(OC)cc1
*A* MET

*Q* Is growth inhibition at least 4%? Consider COc1ccccc1CNC(=O)c1cc(C2CC2)nc2c1cnn2C(C)C
*A* MET

*Q* Is growth inhibition at least 4%? Consider O=C(c1ccc(NCCO)cc1)C1C[C@H]1c1ccc(Cl)cc1 (stereo partly specified)
*A* NOT MET

*Q* Is growth inhibition at least 4%? Consider CC(=O)Oc1ccccc1C(=O)Nc1ncc([N+](=O)[O-])s1
*A* NOT MET

*Q* Is growth inhibition at least 4%? Consider CCc1ccccc1-n1c(C)cn2c3c(=O)n(C(C(=O)OC)C(C)C)c(=O)n(C)c3nc12 (stereo unspecified)
*A* MET

----------
Tested on: Sporothrix schenckii ATCC 32286
ASSAY_PROCEDURE: growth inhibition relative to untreated control; higher = more growth inhibition (more antifungal activity), active = 80 or more; extreme values may be limits of the assay
EXPERIMENTAL_SETUP: 1 µM; 48 h
Outcomes you can answer with include only these: Yes for active, No for inactive

*Q* Assay outcome for COc1ccc(C2(C(=O)Nc3ccc(Br)cc3)CCCC2)cc1 : what was it?
*A* No

*Q* Assay outcome for COc1ccc(Cl)cc1NC(=O)CN(C)C(=O)c1cnn(-c2ccccc2)n1 : what was it?
*A* No

*Q* Assay outcome for CCCCc1ccc(C(=O)Nc2nccc3ccccc23)nc1 : what was it?
*A* No

*Q* Assay outcome for CCOc1ccc(OCC(=O)Nc2cc(C)cc(C)c2)cc1 : what was it?
*A* No

*Q* Assay outcome for COc1cccc(OC)c1C(=O)Nc1ccc(Cl)c(-c2nc3ccccc3s2)c1 : what was it?
*A* No

*Q* Assay outcome for c1ccc(Oc2ccc(-c3cc(N4CCNCC4)[nH]n3)cc2)cc1 : what was it?
*A* No

*Q* Assay outcome for CCn1cnc2c(Nc3cc(F)cc(F)c3)nc(C#N)nc21 : what was it?
*A* No

*Q* Assay outcome for O=C(Nc1cnc2ccccc2c1)c1cccc(-n2cnnn2)c1 : what was it?
*A* No

*Q* Assay outcome for COc1cc2ncnc(NC3CCN(Cc4ccccc4)CC3)c2cc1OC : what was it?
*A* No

*Q* Assay outcome for CN1CCCN(C(c2ccccc2)c2ccc(Cl)cc2)CC1 (stereo not given) : what was it?
*A* No

*Q* Assay outcome for Cc1nc(-c2ccccn2)nc(N(C)CCc2ccccc2)c1Cl : what was it?
*A* No

*Q* Assay outcome for CC(=O)Oc1ccccc1C(=O)Nc1ncc([N+](=O)[O-])s1 : what was it?
*A* No

*Q* Assay outcome for CNc1cc(C)nc(C2CN(C(=O)c3n[nH]c4ccccc34)CCO2)c1 (stereo not given) : what was it?
*A* No

*Q* Assay outcome for CC(C)(C)OC(=O)N1CCN(c2nccc(-c3ccc(-c4ccc(Cl)cc4)s3)n2)CC1 : what was it?
*A* No

*Q* Assay outcome for O=C(Nc1cccnc1)c1c(O)c2cccc3c2n(c1=O)CC3 : what was it?
*A* No

*Q* Assay outcome for NCCN(C(=O)c1ccc(Cl)cc1Cl)c1ccc(OCc2ccc(Cl)cc2)cc1 : what was it?
*A* No

*Q* Assay outcome for c1ccc(-c2cc(N3CCCCC3)c3ccccc3n2)nc1 : what was it?
*A* No

*Q* Assay outcome for CC(C)(C)[C@H]1CC[C@H](CC2=C(O)C(=O)c3ccccc3C2=O)CC1 : what was it?
*A* No

*Q* Assay outcome for c1csc(-c2cnc3sc(NCC4CCOCC4)nn23)c1 : what was it?
*A* No

*Q* Assay outcome for COc1ccc(-c2cnc3ccc(NCc4ccc(S(N)(=O)=O)cc4)nn23)cn1 : what was it?
*A* No

*Q* Assay outcome for O=C(Nc1nc(-c2ccccn2)cs1)c1cncn1-c1ccccc1 : what was it?
*A* No

*Q* Assay outcome for Nc1nccc2ccc(Oc3ccncc3)cc12 : what was it?
*A* No

*Q* Assay outcome for CN1CCN(c2nccc3nc(-c4ccc(F)c(F)c4)[nH]c23)CC1 : what was it?
*A* No

*Q* Assay outcome for Cc1cc(C)c2cc(C(=O)NC3CCCCCCC3)[nH]c2c1 : what was it?
*A* No

*Q* Assay outcome for O=C1N(Cc2cc3ccccc3s2)CC2CN(Cc3ccccc3)CCN12 (stereo not given) : what was it?
*A* No

*Q* Assay outcome for CCOc1ccc2cc(-c3nn(CC4CCN(C)CC4)c4ncnc(N)c34)ccc2c1 : what was it?
*A* No

*Q* Assay outcome for CC1CCCCN1C(=O)NCCc1coc(-c2ccc(F)cc2)n1 (stereo not given) : what was it?
*A* No

*Q* Assay outcome for CC[C@@H]([C@H](C)O)n1ncn(-c2ccc(N3CCN(c4ccc(OC[C@@H]5CO[C@@](Cn6cncn6)(c6ccc(F)cc6F)C5)cc4)CC3)cc2)c1=O : what was it?
*A* Yes

*Q* Assay outcome for O=C(C1CCN(c2cc(-n3cccc3)ncn2)CC1)N1CCc2ccccc2C1 : what was it?
*A* No

*Q* Assay outcome for Cc1cc(C)nc(-n2nc(C)cc2Nc2ccccc2)n1 : what was it?
*A* No
